Test system: Saccharomyces cerevisiae
METHOD_SUMMARY: protein stability index of tFT-peptide fusion (C-terminal peptide) (PSI (0-1 scale)); higher = more stable (slower turnover);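 also: PSI is a weighted mean of sequencing reads over stability bins, variants kept only with over 10 reads, mCherry proximal and sfGFP distal, peptide attached via GGGS linker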
CONDITION_DESCRIPTION: genetic background: wild type; temperature: 30 C
# key: entry, value: protein stability index
The answer should be a number; do not append a unit.

The following sequences have reported results that may help.
>  <SEQ_TEXT>
KNKKKKKRRTRK

>  <RECORDED_VALUE>
0.732

$$$$
>  <SEQ_TEXT>
LPLHRFHPPPPY

>  <RECORDED_VALUE>
0.715

$$$$

Reported protein stability index for `WGWGVLRRRVGA` : what is it?
0.76

Reported protein stability index for `PPQRHTTPTSWG` : what is it?
0.759

Reported protein stability index for `GGGSFVGLDFGG` : what is it?
0.657

Reported protein stability index for `LSLPFLYCFATL` : what is it?
0.518

Reported protein stability index for `SQSNQSIIRKNV` : what is it?
0.453

Reported protein stability index for `GLCTSIFSVVFF` : what is it?
0.679

Reported protein stability index for `VPRGPRFHIILS` : what is it?
0.594

Reported protein stability index for `PFFLLAGITVAC` : what is it?
0.273

Reported protein stability index for `WSISFGLLVCWV` : what is it?
0.233

Reported protein stability index for `PPPPPPPAPPPC` : what is it?
0.724

Reported protein stability index for `LKRKRKYKKQGV` : what is it?
0.786

Reported protein stability index for `CRRRGPWDRRSR` : what is it?
0.624

Reported protein stability index for `LRSVLGWGLFLA` : what is it?
0.325

Reported protein stability index for `TLLVLGLSWGLP` : what is it?
0.618

Reported protein stability index for `MGVGINSGDKLC` : what is it?
0.667

Reported protein stability index for `IGQCYLRHRGMS` : what is it?
0.554

---

System: Saccharomyces cerevisiae
METHOD_SUMMARY: protein stability index of tFT-peptide fusion (C-terminal peptide) (PSI (0-1 scale)); higher = more stable (slower turnover)
CONDITION_DESCRIPTION: genetic background: das1 deletion; temperature: 30 C
ASSAY_METRIC: protein stability index
The answer should be a number; do not append a unit.

The following sequences have reported results that may help.
>  <SEQ_TEXT>
VRFLSLNVLFFC

>  <ASSAY_METRIC>
protein stability index

>  <RECORDED_VALUE>
0.482

$$$$
>  <SEQ_TEXT>
TFRVLAFFCRVV

>  <ASSAY_METRIC>
protein stability index

>  <RECORDED_VALUE>
0.47

$$$$
>  <SEQ_TEXT>
PFPTPPPIPRSP

>  <ASSAY_METRIC>
protein stability index

>  <RECORDED_VALUE>
0.686

$$$$
>  <SEQ_TEXT>
CPALYMPPPVLV

>  <ASSAY_METRIC>
protein stability index

>  <RECORDED_VALUE>
0.191

$$$$

Fill in the recorded protein stability index for this sequence, with Saccharomyces cerevisiae as test system: `IGMVSELLLFYP`
0.671

Fill in the recorded protein stability index for this sequence, with Saccharomyces cerevisiae as test system: `GILILRLILCLF`
0.248

Fill in the recorded protein stability index for this sequence, with Saccharomyces cerevisiae as test system: `VCILLVAWCLMG`
0.24

Fill in the recorded protein stability index for this sequence, with Saccharomyces cerevisiae as test system: `FIFYYTVLLLCR`
0.131
